experiment: gradient 5% acetonitrile 3 min, to 50% in 2 min, to 85% in 15 min, held 3 min, 100 µL/min
conditions_used: column: Zorbax Extend-C18 2.1 x 50 mm; eluents: water / acetonitrile, 0.1% formic acid
observation_type: RP-LC retention time (s)

For orientation, consider the following solved cases.
RP-LC retention time recorded for this compound, `NS(=O)(=O)c1ccc(NC(=O)c2ccc(S(=O)(=O)c3ccc(Cl)cc3)s2)cc1` , is 877

RP-LC retention time recorded for this compound, `CCCn1cnc2ccc(-c3noc(CNS(=O)(=O)c4ccccc4)n3)cc21` , is 682

RP-LC retention time recorded for this compound, `Cc1cccc(Cn2c(=O)n(CCNC(=O)C3CCC3)c3ncccc32)c1` , is 784

RP-LC retention time recorded for this compound, `Cc1cccc(NS(=O)(=O)c2ccc3c(c2)CCCC(=O)N3)c1C` , is 813

RP-LC retention time recorded for this compound, `O=c1cc(-c2cccnc2)oc2c1ccc1ccccc12` , is 979

RP-LC retention time recorded for this compound, `COC(=O)c1c(C)[nH]c(C(=O)N2CCC(CC(=O)NCc3ccc(OC(C)C)cc3)CC2)c1C` , is 812

RP-LC retention time recorded for this compound, Cc1ccc(CNC(=O)C2CCCN(c3cnc4nc(C)c(C)nc4c3)C2)cc1 (configuration not stated) , is 741

RP-LC retention time recorded for this compound, Cc1ccc(C2Cn3nnc(C(=O)NCC4CC4)c3CO2)cc1 (configuration not stated) , is 873

(A) Cc1[nH]nc(-c2cc(S(=O)(=O)NCCc3ccc(S(N)(=O)=O)cc3)c(C)s2)c1C
(B) Cc1ccc(-c2ncc(C(=O)Nc3cccc(Br)c3)c(-c3ccncc3)n2)cc1
Could you kindly indicate whether A or B has the higher RP-LC retention time value? Reply briefly: the label of your chosen item. B

(A) Cc1ccc(CNC(=O)NCCCn2c(-c3ccncc3)nc3cccnc32)cc1
(B) O=C(NC1CCN(Cc2ccccc2)CC1)c1nnc(-c2ccc(S(=O)(=O)N3CCCC3)cc2)o1
Compare RP-LC retention time: is it lower for A or for B ? Reply briefly: the label of your chosen item. A
(A: 651 s, B: 1190 s)
